# assay-protocol: refractive index (Na D-line) (dimensionless)
# measurement-setup: 293.1 K; 101.33 kPa; Liquid; Standard Abbe refractometry
± gives the expanded uncertainty stated by the source.
// refractive index lookup, one value per entry

Illustrative cases are given below, each with its answer.
• Cc1ccccc1 [toluene] = 1.4873 ± 0.0007
• CCCCCCC [heptane] = 1.3882 ± 0.0007

Q: Using known records, supply refractive index for O=CN1CCOCC1 [N-formylmorpholine]
A: 1.484 ± 0.0007

Q: Using known records, supply refractive index for Cc1cccc(C)c1 [1,3-dimethylbenzene]
A: 1.4943 ± 0.0007

Q: Using known records, supply refractive index for c1ccccc1 [benzene]
A: 1.5024 ± 0.0007
